The reported measurements were obtained from the array DNA melting data of Ke et al. (doi:10.1101/2024.01.08.574731).

- Procedure summary: melting temperature; fluorescence melt of hairpins on a sequencing array, two-state fit, raised by 9.35 °C to match UV melts
- Settings: sodium 0.088 M
Measured attribute: Tm (°C)
Give bare numbers, in °C.

GACGGCGAAAGCCGAGTC ((((((....)))..)))
45.8
GTCAAAGAAATTTGAC ((((((....))))))
45
GCAACCGGAAACAGTTGC (((((.(....).)))))
45.7
GATCCCACGAGGGATC ((((((....))))))
63.5
GGTCCACGAAAGTGTACC (((.(((....))).)))
50
GTTGGTGGAAACGCTAAC (((.(.(....).).)))
30.7
CGTTCGGAAACGACCACG ((((((....)))..)))
27.3
CGCGGACGGCTCCGCG ((((((....))))))
68.5
GAATGTGGAAACATGTTC (((..((....))..)))
31.4
GTGGTTGGAAACAACTAC ((.((((....)))).))
47.8

Give measured Tm for every item shown.
1. GTACATGCGAAAGCATAC (((..(((....))))))
2. GGGAACCGAAAGGTGCCC (((.(((....))).)))
3. GATCAACGAAAGTTATC (((.(((....))))))
4. GTTCACGAAAGTGGAAAC ((((((....)))..)))
5. GATCCTTGACAGGATC ((((((....))))))
6. GATCTTTCCAAGATC ((((((...))))))

28.7
64.3
25.4
30.9
49.7
47.7

###

- Procedure summary: folding enthalpy; higher = less favourable; fluorescence melt of hairpins on a sequencing array, two-state fit
- Settings: sodium 0.088 M
Decide using folding enthalpy: a value greater than or equal to -20 kcal/mol is YES, a smaller one is NO.

Answered examples (4):
GGAACTGGAAACAGCTCC (((.(((....))).)))
NO
GATCGCCCCGGCGATC ((((((....))))))
NO
GTGACCGAAAGGTACAC ((((((....))).)))
YES
GGAAGGCGAAAGCCTCC (((.(((....))))))
YES

Here's the next entry for you.
Is the recorded value of folding enthalpy equal to or greater than -20 kcal/mol for this sequence? ACAGGGAAACCTGT (((((....)))))
YES

###

- Procedure summary: melting temperature; fluorescence melt of hairpins on a sequencing array, two-state fit, raised by 9.35 °C to match UV melts
- Settings: sodium 0.088 M
Simple rule here: Tm less than 50 °C is fulfilled, otherwise not fulfilled.

Please review the entries below; each comes with its answer.
TGCAGGAAACTGCA (((((....)))))
not fulfilled
GGCTACCGAAAGGTGCC (((.(((....))))))
not fulfilled
GCTACCGAAAGGTAAAGC ((((((....)))..)))
fulfilled

Determine if GCCCACGAAAGTGAGGGC ((((((....)))..))) shows Tm strictly lower than 50 °C.
not fulfilled

Hello, is Tm of the following sequence strictly smaller than 50 °C? GCGTATGGAAACACACGC ((((.((....)).))))
fulfilled

###

- Procedure summary: folding enthalpy; higher = less favourable; fluorescence melt of hairpins on a sequencing array, two-state fit
- Settings: sodium 0.088 M
Categories are assigned from the measured folding enthalpy using these intervals: bin 0 (below -30 kcal/mol), bin 1 (-30 kcal/mol to below -20 kcal/mol), bin 2 (-20 kcal/mol or more)

Here are 5 sequences together with their reported answers.
GGAGCAGGAAACTGCTTC (.(((((....))))).)
bin 1
GGGCATCGAAAGATACCC (((.(((....))).)))
bin 0
GCTAGCGAAAGCTCAAGC ((((((....)))..)))
bin 2
GTTCGTGGAAACATGAGC (.((.((....)).)).)
bin 2
GATCTCAGCGAGATC ((((((...))))))
bin 0

Using the reported folding enthalpy, which band applies to GGTACCGAAAGGTAAACC ((((((....)))..))) ?
bin 2

Entry GGCAGTGGAAACATTGCC ((((.((....)).)))) belongs to which category?
bin 0

Which bin, given its folding enthalpy, does GCGTAGGACGC ((((...)))) occupy?
bin 2

# bin label for GGAATTCCGAAAGGATCC (((..(((....))))))
bin 2

Returns: class label. Input: GATCGACGCATCGATC ((((((....))))))
bin 0

Into which bin does this sequence go? GTGAGGCGAAAGCCACAC (((.(((....))).)))
bin 1

Tag the class for GCAGCCACGAAAGTGTGC (((..(((....))))))
bin 2

Band for GTGCCCCGAAAGGGCCAC (((.(((....))).))) ?
bin 2

###

- Procedure summary: folding enthalpy; higher = less favourable; fluorescence melt of hairpins on a sequencing array, two-state fit
- Settings: sodium 0.088 M
Hi there, I'd appreciate the recorded folding enthalpy for every entry that follows.
Numbers only, in kcal/mol.

Example entries begin here.
GATCTGTCAACAGATC ((((((....))))))
-39.1
GATCGTGCCCACGATC ((((((....))))))
-39.8

Query sequence follows.
What value of folding enthalpy has been recorded for this entry: GATGAGGGAAACCTCATC (((((((....)))))))
-39.6

###

- Procedure summary: melting temperature; fluorescence melt of hairpins on a sequencing array, two-state fit, raised by 9.35 °C to match UV melts
- Settings: sodium 0.088 M
The label depends only on Tm: y if it is at least 50 °C, n if it is smaller.

Examples from the recorded data:
GATCGCGAAAGCGAAATC ((((((....)))..)))
n
GATCAGTAGCTGATC ((((((...))))))
n
GGAGTTGAAAAACTCC ((((((....))))))
y
GATCAAGTTTTGATC ((((((...))))))
n
GCGAGGCGAAAGCGACGC (((..((....))..)))
y

Hi, just wondering whether GATCCTCGAGAGGATC ((((((....)))))) shows Tm of 50 °C or higher.
y

# check: Tm of GCGTCATACGC ((((...)))) is greater than or equal to 50 °C
y

###

- Procedure summary: melting temperature; fluorescence melt of hairpins on a sequencing array, two-state fit, raised by 9.35 °C to match UV melts
- Settings: sodium 0.088 M
Give measured Tm for each item. Keep answers brief.
Output should be the measured figure followed by the unit it is expressed in.

GATCAAGGATTTGATC ((((((....))))))
49.1 °C
GATCCACGGTGGATC ((((((...))))))
50.6 °C

Next sequence, Tm to be filled in.
Please look up its Tm: GGAAAGGAAACTTTCC ((((((....))))))
50 °C

###

- Procedure summary: folding enthalpy; higher = less favourable; fluorescence melt of hairpins on a sequencing array, two-state fit
- Settings: sodium 0.088 M
Hi, to clarify the labels: criterion met covers folding enthalpy from -20 kcal/mol upward, criterion not met covers anything below -20 kcal/mol.

GCCATTACGAAAGTAGGC (((..(((....))))))
criterion not met

Confirm if folding enthalpy reported for the sequence GATCGATACTTCGATC ((((((....)))))) is -20 kcal/mol or above.
criterion not met

Reported folding enthalpy reaches at least -20 kcal/mol for GGATCCGGAAACAGATCC (((((.(....).))))) ?
criterion not met

# bool: folding enthalpy of GTGATCGAAAGATCGCAC ((((((....)))..))) >= -20 kcal/mol
criterion met

###

- Procedure summary: folding enthalpy; higher = less favourable; fluorescence melt of hairpins on a sequencing array, two-state fit
- Settings: sodium 0.088 M
Measured attribute: folding enthalpy (kcal/mol)
One number for each entry, in kcal/mol.

Sample records with folding enthalpy:
GATCGCTAGTGCGATC ((((((....))))))
-35.2
GATCATTATATGATC ((((((...))))))
-40.2
GATCACACGAAAGTGATC (((..(((....))))))
-34.3
GGAGGGGGAAACTCCTCC (((((.(....).)))))
-32.6
GCCCTGGGAAACCGGGGC ((((.((....)).))))
-43.1

Give folding enthalpy for all sequences that follow.
1. GTGGACTCGAAAGAGCAC (((..(((....))))))
2. GTGGCTGGAAACAGCTGC (..((((....))))..)

1: -21.4; 2: -15.6

Could you report folding enthalpy for every entry in the following list?
1. GGCTACGGAAACGCAGCC ((((.((....)).))))
2. GTTTGAGCGAAAGCTAAC (((..(((....))))))
3. GCTTCGCGAAAGCTATGC ((.(.((....)).).))
4. GTCAGCGAAAGCTGGAC ((((((....))).)))
5. GCGGCTCCGAAAGGACGC (((..(((....))))))

[-53, -10.5, -13.4, -14.4, -41.2]
